- tested on: UniProt P45452
- procedure details: Inhibition of recombinant human MMP13 catalytic domain (Tyr104 to Asn274 residues) expressed in Escherichia coli cells using Mca-Pro-Leu-Gly-Leu-Dpa-Ala-Arg-NH2/TQ3-GABA-Pro-Cha-Abu-Smc-His-Ala-Dab(6'-TAMRA)-Ala-Lys-NH2 as fluorogenic substrate preincubated for 15 mins followed by substrate addition measured after 2 to 4 hrs by fluorometric assay
// returns Not met unless IC50 is strictly below 20 µM, in which case Met

O=C(Nc1ccc(-c2nc3ccc(Br)cc3[nH]2)cc1)c1ccc([N+](=O)[O-])cc1 : Met
Cc1ccc2nc(-c3ccc(NC(=O)c4ccccc4)cc3)[nH]c2c1 : Met
Cc1ccc2nc(-c3ccc(NC(=O)c4ccc([N+](=O)[O-])cc4)cc3)[nH]c2c1 : Met
Cc1cccc2nc(-c3cccc(NC(=O)CCc4ccccc4)c3)[nH]c12 : Not met

We now examine a further compound.
Determine whether this compound shows IC50 lower than 20 µM (ties excluded): "COC(=O)c1ccc(-c2nc3ccc(Br)cc3[nH]2)cc1" Met

====

- tested on: Matrix metalloproteinase-9 (Homo sapiens)
- Sequence (P14780 whole entry, the tested form may be a part): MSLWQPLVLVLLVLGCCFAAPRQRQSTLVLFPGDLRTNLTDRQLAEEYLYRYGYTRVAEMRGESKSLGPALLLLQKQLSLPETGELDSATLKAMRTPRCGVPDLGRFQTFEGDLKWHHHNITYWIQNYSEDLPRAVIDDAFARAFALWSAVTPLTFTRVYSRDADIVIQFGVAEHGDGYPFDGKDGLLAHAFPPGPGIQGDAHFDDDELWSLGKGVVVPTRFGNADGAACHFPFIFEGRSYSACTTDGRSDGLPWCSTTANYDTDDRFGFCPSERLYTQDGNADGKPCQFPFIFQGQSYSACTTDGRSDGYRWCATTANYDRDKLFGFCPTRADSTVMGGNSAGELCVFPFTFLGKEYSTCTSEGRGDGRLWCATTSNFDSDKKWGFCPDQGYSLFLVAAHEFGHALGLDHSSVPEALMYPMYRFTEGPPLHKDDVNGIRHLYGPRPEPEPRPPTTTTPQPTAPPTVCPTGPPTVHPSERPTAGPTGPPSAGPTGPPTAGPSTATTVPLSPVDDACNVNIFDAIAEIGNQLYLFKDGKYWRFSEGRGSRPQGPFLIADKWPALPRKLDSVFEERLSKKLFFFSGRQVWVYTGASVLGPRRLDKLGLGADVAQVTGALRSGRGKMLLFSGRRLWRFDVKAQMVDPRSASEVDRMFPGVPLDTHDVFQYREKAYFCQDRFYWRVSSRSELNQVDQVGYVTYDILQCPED
- procedure details: Inhibition of recombinant human MMP9 catalytic domain (Phe107 to Pro449 residues) expressed in Escherichia coli cells using Mca-Pro-Leu-Gly-Leu-Dpa-Ala-Arg-NH2/TQ3-GABA-Pro-Cha-Abu-Smc-His-Ala-Dab(6'-TAMRA)-Ala-Lys-NH2 as fluorogenic substrate preincubated for 15 mins followed by substrate addition measured after 2 to 4 hrs by fluorometric assay
quantity kind: pIC50
Scale: negative log10 of molar concentration, which is what pIC50 denotes.

Would you please look over these solved cases?
O=S(=O)(Nc1cccc(-c2nc3ccccc3[nH]2)c1)c1ccccc1 : 4.44
O=C(Nc1ccc(-c2nc3ccccc3[nH]2)cc1)c1ccccc1 : 4.80
Cc1ccc2nc(-c3cccc(NC(=O)CCc4ccccc4)c3)[nH]c2c1 : 4.58
Cc1ccc2nc(-c3ccc([N+](=O)[O-])cc3)[nH]c2c1 : 4.66
O=C(Nc1ccc(-c2nc3ccc(Br)cc3[nH]2)cc1)c1ccccc1 : 4.49
COC(=O)c1ccc(-c2nc3ccc(Br)cc3[nH]2)cc1 : 4.68

Look at this compound and give its reported pIC50. "Cc1ccc2nc(-c3ccc(NC(=O)c4cccc([N+](=O)[O-])c4)cc3)[nH]c2c1" 4.84

# pIC50 lookup, item "O=C(CCc1ccccc1)Nc1ccc(-c2nc3ccc(Br)cc3[nH]2)cc1" 4.94

====

# pIC50 annotations
- tested on: Collagenase 3 (Homo sapiens, UniProt P45452)
- procedure details: Inhibition of recombinant human MMP13 catalytic domain (Tyr104 to Asn274 residues) expressed in Escherichia coli cells using Mca-Pro-Leu-Gly-Leu-Dpa-Ala-Arg-NH2/TQ3-GABA-Pro-Cha-Abu-Smc-His-Ala-Dab(6'-TAMRA)-Ala-Lys-NH2 as fluorogenic substrate preincubated for 15 mins followed by substrate addition measured after 2 to 4 hrs by fluorometric assay
Conceptually, pIC50 converts a concentration in mol/L into minus its log10.

Recorded results for 5 compounds are shown here.
O=[N+]([O-])c1ccc(-c2nc3cc([N+](=O)[O-])ccc3[nH]2)cc1 : 4.92
O=C(CCCc1ccccc1)Nc1ccc(-c2nc3ccccc3[nH]2)cc1 : 4.30
Cc1ccc2oc(-c3ccc([N+](=O)[O-])cc3)nc2c1 : 5.06
O=C(Nc1ccc(-c2nc3ccccc3s2)cc1)c1ccccc1 : 4.68
O=[N+]([O-])c1cccc(-c2nc3ccc(Br)cc3[nH]2)c1 : 4.33

Form field - read-out: pIC50; system: Collagenase 3 (Homo sapiens, UniProt P45452); submitted item: "O=[N+]([O-])c1ccc(-c2nc3ccccc3s2)cc1" 5.12

Observed pIC50 on Collagenase 3 (Homo sapiens, UniProt P45452) for "O=C(CCCc1ccccc1)Nc1ccc(-c2nc3ccc(Br)cc3[nH]2)cc1" , please. 4.65

State its pIC50 on Collagenase 3 (Homo sapiens, UniProt P45452): "O=C(CCc1ccccc1)Nc1ccc(-c2nc3ccc(Br)cc3[nH]2)cc1" 5.19

Record lookup: for Collagenase 3 (Homo sapiens, UniProt P45452), what pIC50 belongs to "Cc1cccc2nc(-c3cccc(NC(=O)CCCc4ccccc4)c3)[nH]c12" ? 4.04
